- target.system: T1, CD228 on A375 and A2058 cells (human, UniProt P08582 20-709)
- T1 construct: whole, on cells; GPI-anchored cell surface protein; also called CD228 on A375 cells; CD228 on A2058 cells
- T1 sequence (looked up): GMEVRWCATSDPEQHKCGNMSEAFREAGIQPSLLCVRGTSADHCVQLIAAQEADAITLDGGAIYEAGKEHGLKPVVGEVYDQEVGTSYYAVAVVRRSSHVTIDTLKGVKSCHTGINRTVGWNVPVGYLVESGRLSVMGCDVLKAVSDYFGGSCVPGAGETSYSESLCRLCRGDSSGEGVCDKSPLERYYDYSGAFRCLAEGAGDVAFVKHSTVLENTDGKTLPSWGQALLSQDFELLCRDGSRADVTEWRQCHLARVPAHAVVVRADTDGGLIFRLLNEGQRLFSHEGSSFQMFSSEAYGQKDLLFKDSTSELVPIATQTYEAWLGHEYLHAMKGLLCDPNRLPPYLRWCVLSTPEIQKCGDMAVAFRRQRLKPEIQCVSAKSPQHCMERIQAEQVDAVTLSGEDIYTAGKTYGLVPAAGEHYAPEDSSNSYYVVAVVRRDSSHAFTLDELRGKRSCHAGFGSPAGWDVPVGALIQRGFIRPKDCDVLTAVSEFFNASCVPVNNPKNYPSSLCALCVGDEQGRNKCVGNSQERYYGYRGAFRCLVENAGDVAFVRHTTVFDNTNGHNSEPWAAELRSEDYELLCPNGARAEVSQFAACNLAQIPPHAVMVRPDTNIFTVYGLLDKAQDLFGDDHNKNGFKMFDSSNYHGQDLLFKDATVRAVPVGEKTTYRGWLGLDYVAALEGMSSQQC
- test.name: flow cytometry saturation binding on A2058 cells (~40K receptors), neutral pH
Some binders, each annotated with its measured EC50.
Please reply with the bare figure in nM and do not write the unit itself.

1. hL49_3X_Ala (antibody, V domains shown, hL49 triple mutant: all three light chain CDR histidines (two in CDR-L1, one in CDR-L3) changed to alanine) VH: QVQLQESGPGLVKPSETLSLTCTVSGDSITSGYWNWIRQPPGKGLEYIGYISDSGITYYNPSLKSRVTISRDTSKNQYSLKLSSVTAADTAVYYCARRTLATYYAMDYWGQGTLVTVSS VL: DFVMTQSPLSLPVTLGQPASISCRASQSLVASDGNTYLAWYQQRPGQSPRLLIYRVSNRFSGVPDRFSGSGSGTDFTLKISRVEAEDVGVYYCSQSTAVPPTFGQGTKLEIK; 0.9

Entry under test: hL49_3X_Tyr (antibody, V domains shown, hL49 triple mutant: all three light chain CDR histidines changed to tyrosine) VH: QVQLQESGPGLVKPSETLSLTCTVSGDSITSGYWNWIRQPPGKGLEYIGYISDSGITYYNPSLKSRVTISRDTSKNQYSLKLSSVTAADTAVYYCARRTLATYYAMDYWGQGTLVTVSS VL: DFVMTQSPLSLPVTLGQPASISCRASQSLVYSDGNTYLYWYQQRPGQSPRLLIYRVSNRFSGVPDRFSGSGSGTDFTLKISRVEAEDVGVYYCSQSTYVPPTFGQGTKLEIK . Its EC50 was 1.3

From: patent US20230295330A1
